# method_description: A CellTox Green Cytotoxicity Assay to monitor cytotoxicity in HEK293 cells - 40 hour (AID 1224871); also: % is scaled to controls: 0 for no effect and ±100 for the full control effect; nearly all actives have a fitted effect of over 45% in size
# condition_info: CellTox Green fluorescence; series mostly up to 76.8 µM
Results filed as inconclusive are left out. The source made the active and inactive calls. Calls follow the shape of the dose curve; as a rule, active = well fitted activation curve with a large enough effect in the repeat runs; inconclusive = weak or mixed curves; inactive = flat fitted curve, though single readings scatter.
quantity_name: cytotoxicity increase

compound	quantity_name	value_reported
CCCCCCCCCCCCN1CCOCC1	cytotoxicity increase	inactive
CC(CCl)OC(C)CCl (centres undefined)	cytotoxicity increase	inactive
CCCCC(CC)COCCC#N (centres undefined)	cytotoxicity increase	inactive
Cc1cc(C)c(C)c(O)c1	cytotoxicity increase	inactive
C[Si](C)(C)O[Si](C)(C)O[Si](C)(C)C	cytotoxicity increase	inactive
COc1cccc([C@H](O)C2CCN(CCc3ccc(F)cc3)CC2)c1OC	cytotoxicity increase	inactive
CC(CC(C#N)(c1ccccc1)C(C)C)N(C)C (centres undefined)	cytotoxicity increase	inactive
COc1cc(C)c(Cc2cnc(N)nc2N)cc1OC	cytotoxicity increase	inactive
CCOc1ccccc1O	cytotoxicity increase	inactive
O=C(O)c1ccc2cc(O)ccc2c1	cytotoxicity increase	inactive
CCC(C)CCCC(C)(C)O (centres undefined)	cytotoxicity increase	inactive
Cc1ccc(NC=O)c(C)c1	cytotoxicity increase	inactive
CC(COc1ccccc1)NC(C)C(O)c1ccc(O)cc1 (centres undefined)	cytotoxicity increase	inactive
C[C@H]1C[C@H]2[C@@H]3CCC4=CC(=O)C=C[C@]4(C)[C@@]3(F)[C@@H](O)C[C@]2(C)[C@@]1(O)C(=O)COP(=O)(O)O	cytotoxicity increase	inactive
O=C(Cl)c1cc(Cl)cc(Cl)c1	cytotoxicity increase	inactive
Nc1ccc(-c2ccc(F)cc2)cc1	cytotoxicity increase	inactive
CCC(=O)O[C@@H]1C[C@H]2CC[C@]1(C)C2(C)C	cytotoxicity increase	inactive
Cc1ccccc1CCO	cytotoxicity increase	inactive
Cc1cc(C)n(CO)n1	cytotoxicity increase	inactive
CC(=O)Nc1ccn(C2COC(COC(=O)c3ccccc3)O2)c(=O)n1 (centres undefined)	cytotoxicity increase	inactive
C(/C=C/C=C/Nc1ccccc1)=Nc1ccccc1	cytotoxicity increase	inactive
O=C(OC1C[C@H]2CC[C@@H](C1)[N+]21CCCC1)C(O)(c1ccccc1)c1ccccc1 (some centres undefined)	cytotoxicity increase	inactive
CCCCCCCCCCCCSC#N	cytotoxicity increase	inactive
CCOC(=O)CC(O)(CC(=O)OCC)C(=O)OCC	cytotoxicity increase	inactive
c1ccc(-c2ccc(-c3ccccc3)cc2)cc1	cytotoxicity increase	-4.32% [at 15.8 µM] (inactive)
Cc1cc(N)n(-c2ccccc2)n1	cytotoxicity increase	inactive
O=C1c2ccccc2C(=O)c2c1ccc(O)c2O	cytotoxicity increase	inactive
O=C(O)c1cc(C(=O)O)c(C(=O)O)cc1C(=O)O	cytotoxicity increase	inactive
O=C1c2ccccc2C(=O)C1c1ccc2cc(S(=O)(=O)O)cc(S(=O)(=O)O)c2n1	cytotoxicity increase	inactive
CC1=CC(=C(c2ccc(N)cc2)c2ccc(N)cc2)C=CC1=N	cytotoxicity increase	5.33% [at 6.97 µM] (inactive)
O=c1[nH][nH]c2ccccc12	cytotoxicity increase	inactive
C=CC(=O)OCCCCCCCCCC	cytotoxicity increase	inactive
CC1(C)CC(=O)CC(C)(C)N1	cytotoxicity increase	inactive
O=C(OCCN1CCOCC1)c1cccnc1Nc1cccc(C(F)(F)F)c1	cytotoxicity increase	inactive
CCCCCO	cytotoxicity increase	inactive
O=C1OC(=O)C2CC=CCC12 (centres undefined)	cytotoxicity increase	inactive
CC(=O)Oc1cccc2c1C(=O)c1c(OC(C)=O)cc(C(=O)O)cc1C2=O	cytotoxicity increase	inactive
COc1ccnc2c1CCCCC2S(=O)c1nc2ccccc2[nH]1 (centres undefined)	cytotoxicity increase	inactive
CC(C)C/C=C(\C=O)c1ccccc1	cytotoxicity increase	inactive
N#Cc1ccc(CC(=O)c2cccc(C(F)(F)F)c2)cc1	cytotoxicity increase	inactive
O=C1CCCN1CCO	cytotoxicity increase	inactive
C[C@]12CCC(=O)C=C1[C@@H]1C[C@@H]1[C@H]1[C@@H]3[C@@H]4C[C@@H]4[C@@]4(CCC(=O)O4)[C@@]3(C)CC[C@@H]12	cytotoxicity increase	inactive
O=Cc1ccc([N+](=O)[O-])cc1	cytotoxicity increase	inactive
N#CCCCC(C#N)CCC#N (centres undefined)	cytotoxicity increase	inactive
Cc1c(Nc2ncccc2C(=O)O)cccc1C(F)(F)F	cytotoxicity increase	inactive
OCC(O)c1ccccc1 (centres undefined)	cytotoxicity increase	inactive
CC(C)Cc1nccs1	cytotoxicity increase	inactive
CC(C(=O)O)c1ccc2c(c1)Cc1cccnc1O2 (centres undefined)	cytotoxicity increase	inactive
FC1(F)C(F)(F)C(F)(F)C2(F)C(F)(C1(F)F)C(F)(F)C(F)(F)C1(F)C(F)(F)C(F)(F)C(F)(F)C(F)(F)C12F (centres undefined)	cytotoxicity increase	inactive
Sc1nc(S)nc(S)n1	cytotoxicity increase	inactive
Cc1nc2sccn2c(=O)c1CCN1CCC(=C(c2ccc(F)cc2)c2ccc(F)cc2)CC1	cytotoxicity increase	inactive
CC(O)C(C)O (centres undefined)	cytotoxicity increase	inactive
CS(C)=O	cytotoxicity increase	inactive
CC(=O)CC/C=C(\C)CC/C=C(\C)CC/C=C(\C)CCC=C(C)C	cytotoxicity increase	inactive
